A collection of binders and their measured kon
Biological target: T1, Recombinant human CD4 (R&D Systems, Cat. 10327-CD) (human, UniProt P01730 26-390, limits assumed)
T1 construct: Bought soluble recombinant protein used as analyte at 100 nM; also called huCD4
Test: BLI (Octet Red384), non-clonal supernatant on AMC sensor, 100 nM human CD4, 1:1 local fit;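 note: hybridoma antibodies captured from supernatant, single CD4 concentration as analyte, association and dissociation phases fitted together, giving single-point kinetic estimates per supernatant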
Write down the numeric answer in M⁻¹ s⁻¹ and omit the unit.

Binder: 75110_05E13A (antibody, V domains shown, Non-clonal AlivaMab Mouse Kappa hybridoma supernatant, captured by anti-mouse IgG Fc (human V regions, mouse Fc)) VH: EVQLVESGGDLVKPGGSLRLSCAASGFSFSNAWMSWVRQAPGKGLEWVGRVESKTDGGTTDYAAPVKDRFTISRDDSKYTLYLQMNSLKTEDSAVYYCTIGGGFGLELYGFFDYWGQGTLVTVSS VL: DIQMTQSPSTLSASVGDRVTITCRASQSISSWLAWYQQKPGKAPMLLIYKASSLESGVPSRFSGSGSGTEFTLTISSLQPDDFATYYCLQYNSYYTFGQGTKLEIK
Meas Value: 160000

Complete the entry with kon for 75110_01C18A (antibody, V domains shown, Non-clonal AlivaMab Mouse Kappa hybridoma supernatant, captured by anti-mouse IgG Fc (human V regions, mouse Fc)) VH: EVQLVESGGGLIQPGGSLRLSCAASGFTVSSNYMNWVRQAPGKGLEWVSVIYAGDNTYSADSVKGRFTISRDNSNNTLCLQMNSLRAEDTAVYYCAREGGTTGAFDIWGQGTMVTVSS VL: DIQMTQSPSSVSASVGDRVTITCRASQGINSWLAWYQQKPGKAPKLLIYAASSLQSGVPSRFSGSGSGTDFTLTISSLQPEDFATYYCQQGNSFPYTFGQGTKLEIK
86000

Dear colleague, please send me the reported kon for 75110_02E22A (antibody, V domains shown, Non-clonal AlivaMab Mouse Kappa hybridoma supernatant, captured by anti-mouse IgG Fc (human V regions, mouse Fc)) VH: QVQLQESGPGLVKPSETLSLTCTVSGGSISSFYWSWIRQPAGKGLEWIGRIYTSGSTNYNPSLKSRVTMSVDTSKNQFSLKLSSVTAADTAVYYCARELEKRNYYGMDVWGQGTTVTVSS VL: DIQMTQSPSSLSASVGDRVTITCQASHDISNYLNWYQQKPGKAPKLLIFDASTLETGVPSRFSGSGSGTYFTFTIRSLQPEDIATYYCQQYDSLPLTFGGGTKVEIK when you can.
210000
